Reported values: Influence on viability of LS 180 cells (MTT) for LS 180 cells, one per item.

Please review the following examples before continuing.
- Compound: "CO[C@H]1/C=C/O[C@@]2(C)Oc3c(C)c(O)c4c(O)c(c(/C=N/N5CCN(C)CC5)c(O)c4c3C2=O)NC(=O)/C(C)=C\\C=C\\[C@H](C)[C@H](O)[C@@H](C)[C@@H](O)[C@@H](C)[C@H](OC(C)=O)[C@@H]1C"
  Test value: "no toxic influences"
- Compound: "COc1ccc(CCN(C)CCCC(C#N)(c2ccc(OC)c(OC)c2)C(C)C)cc1OC (centres unmarked)"
  Test value: "no toxic influences"
- Compound: "COc1ccc2cc3[n+](cc2c1OC)CCc1cc2c(cc1-3)OCO2"
  Test value: "no toxic influences"
- Compound: "COc1cc2c(cc1OC)-c1cc3ccc(OC)c(OC)c3c[n+]1CC2"
  Test value: "no toxic influences"

From here, focus on the item given below.
For c1c2c(cc3c1OCO3)-c1cc3ccc4c(c3c[n+]1CC2)OCO4 the compound record lists Influence on viability of LS 180 cells (MTT) as no toxic influences

Source: paper PMC9326880
